- assay target: GORASP1, Q9BQQ3
- Sequence (Q9BQQ3 1-208): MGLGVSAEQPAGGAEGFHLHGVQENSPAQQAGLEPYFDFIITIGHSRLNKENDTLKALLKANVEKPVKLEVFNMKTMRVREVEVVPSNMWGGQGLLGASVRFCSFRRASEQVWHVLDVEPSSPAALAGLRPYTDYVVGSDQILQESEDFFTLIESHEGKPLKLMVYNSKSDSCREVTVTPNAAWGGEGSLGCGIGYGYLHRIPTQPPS
- protocol: holdup assay
- Parameters: key: below the threshold = too weak to quantify, mostly under pKd 3.1 to 4
- test parameters: plain residues with an end cap or a label only (N-terminal biotin on a linker: ado-ado)
observation type: pKd

Sample answers from the record:
{"binder": "PRISRSQSEL [CCDC134, Q9H6E4]", "pKd": "below the threshold"}
{"binder": "VYPNAKVELV [PDLIM4_iso2, P50479;P50479-1]", "pKd": 4.48}
{"binder": "SGSLKLMTTV [DACT1, Q9NYF0]", "pKd": 3.56}
{"binder": "MLSKQSESAI [FLVCR1, Q9Y5Y0]", "pKd": "below the threshold"}
{"binder": "LGRSTPQSEV [DGKH, Q86XP1]", "pKd": "below the threshold"}

Report pKd, nothing else, for this binder: QGPVETESVV [SLC45A4, Q5BKX6]
3.65

Look up and report measured pKd for this entry: RKPKPSSSCC [RAB9A, P51151]
below the threshold

Write down pKd measured for item LPAHHNATRL [SLC34A1, Q06495;Q06495-1]
below the threshold

Give the reported value of pKd for this record: AKPSRISTVV [IQSEC2, Q5JU85]
4.11

Give the reported value of pKd for this record: EVNETDDTKM [KCNJ1, P48048]
below the threshold

Determine its reported pKd: DDPSTAETVL [ABCA7, Q8IZY2]
below the threshold

Read the entry IKAIVDLTGL [TRAF2, Q12933] and write its reported pKd.
below the threshold

// fetch pKd given entry YLEPVLSSEL [ATP2A2, P16615;P16615-3]
below the threshold

Please indicate pKd recorded for NLSIEKETKL [ASNSD1, Q9NWL6]
below the threshold

Give pKd for the following binder: SARSRLSSNL [HCN2, Q9UL51]
below the threshold

Supply reported pKd belonging to this binder: TSQESEDTYL [TBC1D10A, Q9BXI6]
below the threshold
